Origin of values: patent US20220372120A1

- assayed.system: T1, Human purified factor H (human, UniProt P08603 19-1231)
- T1 construct: mature; Full length plasma-purified protein; also called FH; full length FH
- T1 sequence (P08603 19-1231): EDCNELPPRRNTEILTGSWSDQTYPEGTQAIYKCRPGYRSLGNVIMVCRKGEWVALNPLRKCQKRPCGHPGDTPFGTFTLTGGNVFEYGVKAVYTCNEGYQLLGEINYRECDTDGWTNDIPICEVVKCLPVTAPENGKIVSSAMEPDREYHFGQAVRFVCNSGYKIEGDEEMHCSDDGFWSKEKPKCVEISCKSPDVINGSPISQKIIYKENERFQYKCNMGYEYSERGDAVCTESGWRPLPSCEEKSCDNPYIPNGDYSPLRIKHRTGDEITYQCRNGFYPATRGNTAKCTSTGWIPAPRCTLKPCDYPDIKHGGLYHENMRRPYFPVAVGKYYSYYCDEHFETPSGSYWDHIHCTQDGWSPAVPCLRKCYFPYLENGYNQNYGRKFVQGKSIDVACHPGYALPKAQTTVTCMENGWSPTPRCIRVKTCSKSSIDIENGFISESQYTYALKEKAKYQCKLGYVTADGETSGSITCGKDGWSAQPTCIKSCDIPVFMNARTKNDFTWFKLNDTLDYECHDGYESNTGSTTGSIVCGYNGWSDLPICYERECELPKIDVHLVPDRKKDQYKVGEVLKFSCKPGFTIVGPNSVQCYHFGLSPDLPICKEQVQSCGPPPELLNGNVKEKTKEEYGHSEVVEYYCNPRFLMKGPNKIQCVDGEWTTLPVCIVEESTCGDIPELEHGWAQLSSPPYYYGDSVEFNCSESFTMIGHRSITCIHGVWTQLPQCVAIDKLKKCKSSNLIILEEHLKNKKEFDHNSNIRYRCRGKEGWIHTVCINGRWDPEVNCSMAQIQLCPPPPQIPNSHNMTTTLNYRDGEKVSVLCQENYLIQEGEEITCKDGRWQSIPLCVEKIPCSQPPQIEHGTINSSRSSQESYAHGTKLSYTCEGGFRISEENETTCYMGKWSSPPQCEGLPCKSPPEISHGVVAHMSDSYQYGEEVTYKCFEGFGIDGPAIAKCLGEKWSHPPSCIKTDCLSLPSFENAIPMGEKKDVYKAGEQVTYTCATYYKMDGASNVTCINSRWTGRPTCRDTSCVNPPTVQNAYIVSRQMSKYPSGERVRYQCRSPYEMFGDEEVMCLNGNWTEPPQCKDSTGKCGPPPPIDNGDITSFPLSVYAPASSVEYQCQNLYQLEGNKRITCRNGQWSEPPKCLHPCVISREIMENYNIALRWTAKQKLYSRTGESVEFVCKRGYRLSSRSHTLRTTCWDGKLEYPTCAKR
- protocol.notes: SPR (BiaCore T200), antibody captured on Protein A or Protein G chip, full length FH flowed over
readout.kind: kon

>  <binder>
Antibody 4 (antibody, V domains shown) VH: QVQLQESGPGLVKPSQTLSLTCTVSGFSLTNYGVYWIRQHPGKGLEWIGVIWSGGTTEYNPSMKSRVTISKDTSKNQVSLKLSSVTAADTAVYYCARNFGNYAMDFWGQGTSVTVSS VL: DIQLTQSPSSLSASVGDRVTITCRASTSVTYMHWYQQKPGKAPKPLIYASSNLASGVPSRFSGSGSGTDFTLTISSLQPEDFATYYCQHRSSSNPLTFGAGTKLELK

>  <measured.result>
55300 M⁻¹ s⁻¹

$$$$
>  <binder>
Antibody 1 (antibody, V domains shown) VH: QVQLQESGPGLVKPSQTLSLTCTVSGFSLTNYGVYWIRQHPGKGLEWIGVVWSGGTTEFNPSLKSRVTISKDTSKNQVSLKLSSVTAADTAVYYCARNFGNYAMDYWGQGTSVTVSS VL: DIQLTQSPSSLSASVGDRVTITCKASSSVTYLHWYQQKPGKAPKPLIYATSNLASGVPSRFSGSGSGTDFTLTISSLQPEDFATYYCQHRSSSNPLTFGAGTKLELK

>  <measured.result>
53800 M⁻¹ s⁻¹

$$$$
